# target_system: human Factor XIa (Homo sapiens, UniProt P03951)
# Sequence (P03951 388-625 limits assumed): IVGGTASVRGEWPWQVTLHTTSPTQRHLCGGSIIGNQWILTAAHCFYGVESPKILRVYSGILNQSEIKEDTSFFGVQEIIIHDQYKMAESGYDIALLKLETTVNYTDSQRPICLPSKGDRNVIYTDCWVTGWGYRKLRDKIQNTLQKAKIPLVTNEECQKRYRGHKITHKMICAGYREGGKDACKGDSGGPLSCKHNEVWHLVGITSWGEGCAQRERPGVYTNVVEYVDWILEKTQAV
# Sequence (P03951 19-387 partner limits assumed): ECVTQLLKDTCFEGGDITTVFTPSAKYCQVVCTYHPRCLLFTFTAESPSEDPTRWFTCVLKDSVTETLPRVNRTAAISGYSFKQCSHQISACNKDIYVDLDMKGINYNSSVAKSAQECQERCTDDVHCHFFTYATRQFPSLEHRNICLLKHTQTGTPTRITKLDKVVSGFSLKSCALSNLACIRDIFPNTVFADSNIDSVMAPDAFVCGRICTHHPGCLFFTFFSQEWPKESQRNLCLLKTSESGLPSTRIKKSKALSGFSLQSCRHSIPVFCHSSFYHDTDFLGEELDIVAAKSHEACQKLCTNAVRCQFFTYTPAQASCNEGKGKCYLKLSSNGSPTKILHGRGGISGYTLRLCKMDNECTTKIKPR
Counter-ions that a name gives are not always drawn.
readout_name: Ki (nM)
# unit: nM | format: bare number

[
  {
    "compound": "C[C@@H]1CCC[C@H](n2cnc(-c3c(C(F)(F)F)ccc(Cl)c3F)cc2=O)c2cc(ccn2)-c2cc(F)ccc2NC1=O [Example 143, trifluoroacetate]",
    "units_label": "nM",
    "Ki": 17
  }
]

Given Cc1ccc(-n2cc(C(F)(F)F)nn2)c(-c2cc(=O)n([C@H]3CCC[C@@H](C)C(=O)Nc4ccccc4-c4ccnc3c4)cn2)c1 , state its recorded Ki. 0.63

Would you kindly repeat that for C[C@@H]1CCC[C@H](n2cnc(-c3c(-n4cc(C(F)F)nn4)ccc(Cl)c3F)cc2=O)c2cc(ccn2)-c2cc(F)ccc2NC1=O [Example 134, trifluoroacetate] ? 0.16

Each recorded value in this set is attributed to patent US9777001B2.
